meta.source: patent US10202413B2

Measured ratio of currents measured in the presence/absence of added compound, 1.0 μM accompanies every entry in the list below.
molecular target: rat α1β2γ2L type GABAA receptors expressed in Xenopus laevis oocytes (Rattus norvegicus, UniProt P18508+P62813+P63138, INS375LLRMFSFK); construct: expressed in transfected cells; host or cells: Xenopus laevis oocytes; experiment: Oocyte electrophysiology: potentiation of chloride currents mediated by 2 μM GABA, and direct gating; type: cell-based; details: 1.0 μM compound; 2 μM GABA; ± SEM (N≥4)
Sequence (P62813 28-455, stated change not applied): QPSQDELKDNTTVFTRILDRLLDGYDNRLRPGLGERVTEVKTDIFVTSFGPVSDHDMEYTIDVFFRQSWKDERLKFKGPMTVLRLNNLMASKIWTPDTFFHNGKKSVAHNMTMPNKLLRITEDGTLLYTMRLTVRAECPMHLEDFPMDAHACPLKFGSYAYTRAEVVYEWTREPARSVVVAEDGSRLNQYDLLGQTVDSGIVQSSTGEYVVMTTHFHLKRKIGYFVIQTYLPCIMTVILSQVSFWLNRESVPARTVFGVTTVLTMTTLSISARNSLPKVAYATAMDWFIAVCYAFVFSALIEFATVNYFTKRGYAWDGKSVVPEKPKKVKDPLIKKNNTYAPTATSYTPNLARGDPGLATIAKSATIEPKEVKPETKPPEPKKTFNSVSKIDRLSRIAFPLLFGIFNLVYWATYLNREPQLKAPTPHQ
Sequence (P63138 26-474, stated change not applied): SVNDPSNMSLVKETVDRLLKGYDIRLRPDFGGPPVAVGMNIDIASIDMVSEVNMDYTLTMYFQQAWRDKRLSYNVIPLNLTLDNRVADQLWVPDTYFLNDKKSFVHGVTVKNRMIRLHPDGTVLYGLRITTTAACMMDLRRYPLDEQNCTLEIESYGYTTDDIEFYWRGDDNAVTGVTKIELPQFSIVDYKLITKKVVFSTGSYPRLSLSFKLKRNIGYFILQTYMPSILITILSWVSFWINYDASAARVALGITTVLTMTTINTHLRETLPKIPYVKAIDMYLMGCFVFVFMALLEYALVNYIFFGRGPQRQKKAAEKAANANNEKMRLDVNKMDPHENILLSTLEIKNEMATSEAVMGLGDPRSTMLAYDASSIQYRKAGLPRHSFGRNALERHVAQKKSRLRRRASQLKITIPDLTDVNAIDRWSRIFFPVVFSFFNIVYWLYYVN
Sequence (P18508 with tags, fused parts or gaps INS375LLRMFSFK): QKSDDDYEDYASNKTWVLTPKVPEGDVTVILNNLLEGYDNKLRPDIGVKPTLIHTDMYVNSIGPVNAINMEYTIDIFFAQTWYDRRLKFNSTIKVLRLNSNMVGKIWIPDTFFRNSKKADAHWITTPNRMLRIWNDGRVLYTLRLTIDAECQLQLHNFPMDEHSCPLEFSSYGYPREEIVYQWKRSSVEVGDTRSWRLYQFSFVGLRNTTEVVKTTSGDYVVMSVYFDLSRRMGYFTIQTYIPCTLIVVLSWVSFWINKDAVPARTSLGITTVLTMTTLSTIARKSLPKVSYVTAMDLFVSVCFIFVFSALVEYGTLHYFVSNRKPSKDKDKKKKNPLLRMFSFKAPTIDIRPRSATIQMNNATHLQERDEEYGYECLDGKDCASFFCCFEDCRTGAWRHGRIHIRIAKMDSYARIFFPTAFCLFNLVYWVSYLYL
Just the number, please, no unit after it.

{"molecule": "C[C@@]12CC[C@@H]3[C@H](CC[C@@H]4C[C@@H](O)CC[C@]43C)[C@H]1CC(=O)C2 [MQ-35]", "test.result": 7.72}
{"molecule": "CC(=O)[C@@H]1C[C@@H]2[C@H]3CC[C@@H]4C[C@@H](O)CC[C@@]4(C)[C@@H]3CC[C@@]2(C)C1 [KK-135]", "test.result": 3.26}
{"molecule": "C[C@@]12CC[C@H](O)C[C@H]1CC[C@H]1[C@H]2CC[C@@]2(C)C=C(C#N)C[C@H]12 [KK-141]", "test.result": 1.35}
{"molecule": "C[C@@]12CC[C@@H]3[C@H](CC[C@@H]4C[C@@H](O)CC[C@]43C)[C@H]1CC(=CC#N)C2 [KK-138]", "test.result": 5.87}
{"molecule": "CO[C@H]1[C@H]2CC[C@@H]3[C@H]4CC(=O)C[C@]4(C)CC[C@H]3[C@]2(C)CC[C@@H]1O [KK-122]", "test.result": 6.48}

Now consider the entry below.
Record C[C@@]12CC[C@@H]3[C@H](CC[C@H]4C[C@@H](O)CC[C@]43C)[C@H]1CC(=O)C2 [KK-97] , field ratio of currents measured in the presence/absence of added compound, 1.0 μM: 6.15
